Each recorded value in this set is attributed to the supplement of paper PMC10567573.

Below, each entry is listed alongside its reported protein stability index.
B1: SAT2 (parent)
chain: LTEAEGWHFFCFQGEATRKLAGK

# Variants of: B1
# Test: protein stability index of a GFP-peptide fusion (GPS, HEK-293T) (PSI 1-6); higher = more stable;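 further: lentivirally expressed fusions sorted by FACS into six bins by GFP to DsRed ratio, PSI derived from sequencing read proportions per bin multiplied by bin number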
# Condition info: c terminus: native
When you answer, write just the number.

# Mut, protein stability index
data = [
    ("K19N", 2.93),
    ("G22D", 2.64),
    ("H8E", 3.41),
]

Shift focus to the following entry.
(Q) Give the measured protein stability index for `E15A`
(A) 1.59
